conditions: in ethyl acetate, 298.2 K
ENDPOINT_NAME: solubility (mole fraction)

chemical_string=O=c1cc(-c2ccccc2)oc2cc(O)cc(O)c12 quantitative_readout=0.00082

---

details: in n-butanol, 293.2 K
ENDPOINT_NAME: solubility (mole fraction)

chemical_string=O=c1cc(-c2ccccc2)oc2cc(O)cc(O)c12 quantitative_readout=0.000586

---

conditions: in DMF, 333.2 K
ENDPOINT_NAME: solubility (mole fraction)

chemical_string=O=c1cc(-c2ccccc2)oc2cc(O)cc(O)c12 quantitative_readout=0.0568

---

settings: in water, 318.2 K
ENDPOINT_NAME: solubility (mole fraction)

chemical_string=O=c1cc(-c2ccccc2)oc2cc(O)cc(O)c12 quantitative_readout=4.82e-08

---

conditions: in water, 293.2 K
ENDPOINT_NAME: solubility (mole fraction)

chemical_string=O=c1cc(-c2ccccc2)oc2cc(O)cc(O)c12 endpoint_name="solubility (mole fraction)" result=4.61e-09

---

details: in ethyl acetate, 318.2 K
ENDPOINT_NAME: solubility (mole fraction)

chemical_string=O=c1cc(-c2ccccc2)oc2cc(O)cc(O)c12 endpoint_name="solubility (mole fraction)" quantitative_readout=0.00134

---

conditions: in n-propanol, 318.2 K
ENDPOINT_NAME: solubility (mole fraction)

chemical_string=O=c1cc(-c2ccccc2)oc2cc(O)cc(O)c12 endpoint_name="solubility (mole fraction)" result=0.00123

---

conditions: in ethanol, 298.2 K
ENDPOINT_NAME: solubility (mole fraction)

chemical_string=O=c1cc(-c2ccccc2)oc2cc(O)cc(O)c12 result=0.000505

---

settings: in DMF, 323.2 K
ENDPOINT_NAME: solubility (mole fraction)

chemical_string=O=c1cc(-c2ccccc2)oc2cc(O)cc(O)c12 endpoint_name="solubility (mole fraction)" quantitative_readout=0.0408

---

conditions: in DMF, 293.2 K
ENDPOINT_NAME: solubility (mole fraction)

chemical_string=O=c1cc(-c2ccccc2)oc2cc(O)cc(O)c12 quantitative_readout=0.01

---

settings: in acetone, 313.2 K
ENDPOINT_NAME: solubility (mole fraction)

chemical_string=O=c1cc(-c2ccccc2)oc2cc(O)cc(O)c12 endpoint_name="solubility (mole fraction)" result=0.00205

---

settings: in n-butanol, 298.2 K
ENDPOINT_NAME: solubility (mole fraction)

chemical_string=O=c1cc(-c2ccccc2)oc2cc(O)cc(O)c12 quantitative_readout=0.000663

---

conditions: in ethanol, 293.2 K
ENDPOINT_NAME: solubility (mole fraction)

chemical_string=O=c1cc(-c2ccccc2)oc2cc(O)cc(O)c12 endpoint_name="solubility (mole fraction)" result=0.000455

---

conditions: in ethanol, 328.2 K
ENDPOINT_NAME: solubility (mole fraction)

chemical_string=O=c1cc(-c2ccccc2)oc2cc(O)cc(O)c12 quantitative_readout=0.00144

---

conditions: in methanol, 323.2 K
ENDPOINT_NAME: solubility (mole fraction)

chemical_string=O=c1cc(-c2ccccc2)oc2cc(O)cc(O)c12 endpoint_name="solubility (mole fraction)" quantitative_readout=0.000576

---

details: in isopropanol, 308.2 K
ENDPOINT_NAME: solubility (mole fraction)

chemical_string=O=c1cc(-c2ccccc2)oc2cc(O)cc(O)c12 endpoint_name="solubility (mole fraction)" quantitative_readout=0.000836
